test system: Colon cancer organoid; experiment: Targeting of F14 CAF-induced therapy resistance in O23 CRC organoid-stroma co-culture. Cell viability is reported with Gefitinib.; format: functional, Homo sapiens; details: Homo sapiens, Concentration 10 uM; read-out: Cell Viability
For each record, write down the corresponding viability at 10 µM.
Answers are plain numbers, in %.

The examples below pair each entry with its known result.
compound	measurementType	readoutUnits	valueObserved
c1ccc2oc(-c3csc(C4CCN(Cc5nc6ncccc6[nH]5)CC4)n3)cc2c1	viability at 10 µM	%	66
Cc1nc(C2CCN(C(=O)c3ccc(OC(F)(F)F)cc3N)CC2)c2ncc(N3CCN(C)CC3)cc2n1	viability at 10 µM	%	46.5
FC(F)(F)c1ccc2c(c1)nc(-c1cccnc1)n2C1CC1 [MSD-CYP11B2-Negative-control]	viability at 10 µM	%	69.7
CC(C)(O)c1cncc(-c2nc3ccc(F)cc3n2C2CC2)c1	viability at 10 µM	%	79.5
CCN(C(=O)CO)[C@H]1CN(/C(=N\C#N)Nc2cccc(OC(F)F)c2)N=C1c1ccc(Cl)c(Cl)c1	viability at 10 µM	%	54.9

Would you mind listing viability at 10 µM for each of the following compounds?
1. CN(C)[C@@H]1CCN(c2cc(-c3ccccc3)nc3ccnn23)C1 [(R)-ZINC-3573]
2. CN1CCN(c2ccnc(NCCc3ccccc3)n2)CC1 [TP-040n]
3. Cc1c(Nc2ccc(S(=O)(=O)N3CCN(C)CC3)cc2F)nc2ccc(-c3cnn(C4CC4)c3)cn2c1=O
4. CC(C)(O)[C@H](F)CN1Cc2cc(NC(=O)c3cnn4cccnc34)c(N3CCOCC3)cc2C1=O
5. CC1=C(C)C(=O)C(C(C)(C)CC(=O)N(CCCCSC[C@H]2O[C@@H](n3cnc4c(N)ncnc43)[C@@H]3OC(C)(C)O[C@@H]32)Cc2cccc(-c3ccc(Cl)cc3)c2)=C(C)C1=O
6. CCNC(=O)c1cc2c(-c3cc(C(C)(C)O)ccc3Oc3c(C)cc(F)cc3C)cn(C)c(=O)c2[nH]1
7. CC(=O)N1CCC(c2ccc(C(=O)NC(=N)N)cc2C(F)(F)F)CC1
8. Clc1cccc(-c2nnnn2Cc2cccnc2)c1Cl

Output line:
[61.7, 100, 88.9, 38.7, 7.29, 82, 53.2, 47.8]

Each of the following entries comes with a recorded value; kindly state viability at 10 µM for each.
1. CCn1cc(-c2cccc(C(F)(F)F)c2)c2sc(C(=N)NC3CCS(=O)(=O)CC3)cc2c1=O
2. CCCc1cc(C)[nH]c(=O)c1CNC(=O)c1cc(-c2ccc(N3CCN(C(C)C)CC3)nc2)cc2c1cnn2C(C)C

Output line:
1: 68.8; 2: 68.8

Input line: Respond only with viability at 10 µM recorded for "N#CN1CC[C@H](C(=O)Nc2nc3c(s2)CN(C(=O)CN=[N+]=[N-])CC3)C1"
Output line: 43.1
